- MEASURED TARGET: AURKB (MV4-11^AURKB-HiBiT cells) (Homo sapiens)
- Construct: expressed in transfected cells; host or cells: MV4-11, lentiviral transduction (pRRL-PGK vector)
- Sequence (Q96GD4 1-345 isoform Q96GD4-5): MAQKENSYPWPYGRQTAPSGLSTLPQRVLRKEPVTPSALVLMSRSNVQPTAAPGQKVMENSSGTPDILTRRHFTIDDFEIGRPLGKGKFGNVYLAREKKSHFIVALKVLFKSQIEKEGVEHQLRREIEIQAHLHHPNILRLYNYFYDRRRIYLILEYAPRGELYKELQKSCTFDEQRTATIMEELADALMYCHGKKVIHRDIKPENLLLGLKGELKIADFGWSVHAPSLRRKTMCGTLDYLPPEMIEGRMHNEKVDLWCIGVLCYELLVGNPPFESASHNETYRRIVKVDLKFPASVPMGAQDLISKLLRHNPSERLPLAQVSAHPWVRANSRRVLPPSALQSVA
- EXPERIMENT NOTES: HiBiT assay, AURKB degradation
- Format: cell-based
- Set-up: key: compounds with degradation less than 15% reported as “inactive”
- REPORTED CONDITIONS: 6 h treatment

COMPOUND	Dmax (maximal degradation) AURKB
COc1cc(N2CCC(OCC(=O)NCCCNc3cccc4c3C(=O)N(C3CCC(=O)NC3=O)C4=O)CC2)ccc1Nc1nc(Nc2ccccc2S(=O)(=O)C(C)C)c2nc[nH]c2n1 (stereo not shown)	inactive
COc1cc(N2CCN(C(=O)CNC(=O)CCCC(=O)Nc3cccc4c3C(=O)N(C3CCC(=O)NC3=O)C4=O)CC2)ccc1Nc1nc(Nc2ccccc2S(=O)(=O)C(C)C)c2nc[nH]c2n1 (stereo not shown)	inactive
CC(C)S(=O)(=O)c1ccccc1Nc1nc(Nc2ccc(N3CCN(C(=O)CNC(=O)CCCC(=O)Nc4cccc5c4C(=O)N(C4CCC(=O)NC4=O)C5=O)CC3)cc2)nc2[nH]cnc12 (stereo not shown)	29.40%
COc1cc(N2CCC(OCC(=O)NCCCCNc3cccc4c3C(=O)N(C3CCC(=O)NC3=O)C4=O)CC2)ccc1Nc1nc(Nc2ccccc2S(=O)(=O)C(C)C)c2nc[nH]c2n1 (stereo not shown)	inactive

====

- MEASURED TARGET: AURKA (MV4-11^AURKA-HiBiT cells) (Homo sapiens)
- Construct: expressed in transfected cells; host or cells: MV4-11, lentiviral transduction
- Sequence (O14965 whole entry): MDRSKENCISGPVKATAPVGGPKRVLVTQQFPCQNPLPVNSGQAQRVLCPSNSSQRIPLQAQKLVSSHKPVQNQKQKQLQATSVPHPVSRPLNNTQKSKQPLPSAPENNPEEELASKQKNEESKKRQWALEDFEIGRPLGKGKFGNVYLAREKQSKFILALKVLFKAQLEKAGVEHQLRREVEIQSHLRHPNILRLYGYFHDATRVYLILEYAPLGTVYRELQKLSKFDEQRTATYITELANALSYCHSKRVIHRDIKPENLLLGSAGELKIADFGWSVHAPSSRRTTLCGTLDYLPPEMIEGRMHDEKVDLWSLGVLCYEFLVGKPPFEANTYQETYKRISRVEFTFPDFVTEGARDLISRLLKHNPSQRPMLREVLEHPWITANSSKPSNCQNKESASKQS
- EXPERIMENT NOTES: HiBiT assay, AURKA degradation
- Type: cell-based
- REPORTED CONDITIONS: 6 h treatment, MV4-11^AURKA-HiBiT cells
MEASURED METRIC: Dmax (maximal degradation) AURKA

COMPOUND	MEASURED TARGET	RESULT
Cc1ncsc1-c1ccc(CNC(=O)[C@@H]2C[C@@H](O)CN2C(=O)[C@@H](NC(=O)CCC(=O)NCCCNC(=O)CCC(=O)N2CCN(c3ccc(Nc4nc(NC5CCCCC5)c5nc[nH]c5n4)cc3)CC2)C(C)(C)C)cc1	AURKA (MV4-11^AURKA-HiBiT cells) (Homo sapiens)	39.50%
COc1cc(N2CCC(OCC(=O)NCCNC(=O)CCCC(=O)Nc3cccc4c3C(=O)N(C3CCC(=O)NC3=O)C4=O)CC2)ccc1Nc1nc(Nc2ccccc2S(=O)(=O)C(C)C)c2nc[nH]c2n1 (stereo not shown)	AURKA (MV4-11^AURKA-HiBiT cells) (Homo sapiens)	inactive
COc1cc(N2CCC(OCC(=O)NCCCNc3cccc4c3C(=O)N(C3CCC(=O)NC3=O)C4=O)CC2)ccc1Nc1nc(Nc2ccccc2S(=O)(=O)C(C)C)c2nc[nH]c2n1 (stereo not shown)	AURKA (MV4-11^AURKA-HiBiT cells) (Homo sapiens)	inactive
COc1cc(N2CCC(OCC(=O)NCCCCNc3cccc4c3C(=O)N(C3CCC(=O)NC3=O)C4=O)CC2)ccc1Nc1nc(Nc2ccccc2S(=O)(=O)C(C)C)c2nc[nH]c2n1 (stereo not shown)	AURKA (MV4-11^AURKA-HiBiT cells) (Homo sapiens)	inactive
